Readings of Average Total NAD (pmoles) Concentration from NAD Assay for the listed molecules
- System: NHDF cells
- method: General NAD Assay Procedure: total NAD level in NHDF cells (NAD/NADH Quantification Kit)
- Format: cell-based
- condition-context: 3-Hour, Conc. 5 μM
readout-label: Average Total NAD (pmoles) Concentration from NAD Assay (pmol)

1) O=C(NCCCCCC[P+](c1ccccc1)(c1ccccc1)c1ccccc1)c1cccnc1: 41.6
2) O=C(O)c1ccc[n+]([C@@H]2O[C@H](COP(=O)(O)O)[C@@H](O)[C@H]2O)c1 [Sample 1, Nicotinic acid mononucleotide]: 38.1
3) NC(=O)c1ccc[n+]([C@@H]2O[C@H](COP(=O)([O-])O)[C@@H](O)[C@H]2O)c1 [NMN, nicotinamide mononucleotide, reference compound]: 48.5
4) O=C(NCCCCCC[P+](c1ccccc1)(c1ccccc1)c1ccccc1)c1ccc[n+]([C@@H]2O[C@H](COP(=O)(O)O)[C@@H](O)[C@H]2O)c1: 35.5
